target: RUNX1 (UniProt Q01196); assay: RUNX1 binding intensity (PBM fluorescence) in presence of ETS1, normalised to RUNX1-only experiment (arbitrary fluorescence units); higher = stronger binding; details: RUNX1 concentration 2 nM; ETS1 concentration 25 nM;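 also: Full-length recombinant human ETS1 or RUNX1 bound to double-stranded 36-bp genomic probes on microarrays, detected by protein-specific primary antibody and Alexa488 secondary, spot fluorescence as median of four replicate spots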
Sequence (Q01196 whole entry): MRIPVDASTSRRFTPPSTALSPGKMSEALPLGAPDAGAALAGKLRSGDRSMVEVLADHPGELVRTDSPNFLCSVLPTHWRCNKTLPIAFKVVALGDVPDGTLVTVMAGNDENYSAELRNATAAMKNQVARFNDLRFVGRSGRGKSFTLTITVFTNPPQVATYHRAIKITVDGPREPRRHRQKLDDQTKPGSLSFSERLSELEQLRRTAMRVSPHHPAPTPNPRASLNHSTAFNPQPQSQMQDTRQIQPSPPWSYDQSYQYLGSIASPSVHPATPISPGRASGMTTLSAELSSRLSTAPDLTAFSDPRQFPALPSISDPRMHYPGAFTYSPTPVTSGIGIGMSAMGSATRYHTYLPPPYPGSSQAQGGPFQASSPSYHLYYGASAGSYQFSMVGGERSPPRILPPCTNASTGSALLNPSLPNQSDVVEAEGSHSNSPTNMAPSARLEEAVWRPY
The entries below are paired with their reported RUNX1 binding intensity.

Example entries begin here.
| POLYMER SEQUENCE | QUANTITY MEASURED | RESULT |
| --- | --- | --- |
| GGCTTCCGCCTGCCGAGCGGCCCCGGACCGCAGGCC | RUNX1 binding intensity | 1980 |
| TTTTATCCTTCCTTTTTTGTTCTTTGTGGTGGAGGT | RUNX1 binding intensity | 2040 |
| CCAGAATGCAGGAAGTGCTGTGGTTTGACTTTGTTT | RUNX1 binding intensity | 1970 |
| GGTCCGGATGTATAAAGCGCGGCCCCCTGCGGGGAG | RUNX1 binding intensity | 997 |
| TAGGCTGAAGACTTCCGCCCCGCAGAGGACTTGCCT | RUNX1 binding intensity | 1170 |

Entry `GGGTCGCGGCCTTCCGGCGAACGCGGTTACCGTGGA` under RUNX1 (UniProt Q01196) had RUNX1 binding intensity of 1380

Entry `ACACCTCAGGCAGGATGTGGTAGGGGTTGCCCCAGA` under RUNX1 (UniProt Q01196) had RUNX1 binding intensity of 2700

Entry `CCTTTCCGCGAGACCTTCCGCGGTTATCCAGCGAGT` under RUNX1 (UniProt Q01196) had RUNX1 binding intensity of 1510

Entry `AACCCACCGGATGGAAGCTGCCACTCAGCCGCAGGA` under RUNX1 (UniProt Q01196) had RUNX1 binding intensity of 1030

Entry `TTCAACAAGGTTTTCCTGTGGTTACCCCATGCTTTG` under RUNX1 (UniProt Q01196) had RUNX1 binding intensity of 1680

Entry `GAGGCCCAGGATGTGGCTGGAGGCCTGTGGTGGGAC` under RUNX1 (UniProt Q01196) had RUNX1 binding intensity of 864
